Tested on: 422866-222-R5-J1-PDC spheroid viability;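 also: spheroids exposed to agents for seven days before readout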
ASSAY_INFO: Anticancer human tumor 422866-222-R5-J1-PDC patient-derived pancreatic adenocarcinoma cell line growth inhibition [CLK]
CONDITION_CONTEXT: second compound 1 µM; first compound 0.00316 µM; stronger effect = lower value; spheroids with HUVEC and MSC
Below, each entry is listed alongside its reported viability, T/C.
Hi! Could you send only the number? It should be in %, unit omitted.

These solved cases illustrate the format of a correct answer.
{"MOLECULE": "Cn1ncnc1[C@H]1c2n[nH]c(=O)c3cc(F)cc(c23)N[C@@H]1c1ccc(F)cc1 + CNC(=O)c1ccc(Nc2nc(OC3CCCC3)c3c(-c4ccc5nc(C)oc5c4)c[nH]c3n2)c(OC)c1", "viability, T/C / %": 63.7}
{"MOLECULE": "COc1c(OCCCN2CCOCC2)ccc2c3n(c(=NC(=O)c4cnc(N)nc4)nc12)CCN3 + CNC(=O)c1ccc(Nc2nc(OC3CCCC3)c3c(-c4ccc5nc(C)oc5c4)c[nH]c3n2)c(OC)c1", "viability, T/C / %": 50.1}

Query: Item CCc1c2c(nc3ccc(O)cc13)-c1cc3c(c(=O)n1C2)COC(=O)[C@]3(O)CC + CN1CCN(c2cc(C(=O)Nc3cc4cc(-c5cnn(C)c5)ccc4cn3)ccn2)CC1 has what recorded viability, T/C?
Reply: 12.3

Query: Requested read-out: viability, T/C. Entry: CCN1CCN(Cc2ccc(Nc3ncc(F)c(-c4cc(F)c5nc(C)n(C(C)C)c5c4)n3)nc2)CC1 + CN1CCN(c2cc(C(=O)Nc3cc4cc(-c5cnn(C)c5)ccc4cn3)ccn2)CC1
Reply: 34.6

Query: Name the reported viability, T/C value associated with the molecule CCN1CCN(Cc2ccc(Nc3ncc(F)c(-c4cc(F)c5nc(C)n(C(C)C)c5c4)n3)nc2)CC1 + CNC(=O)c1ccc(Nc2nc(OC3CCCC3)c3c(-c4ccc5nc(C)oc5c4)c[nH]c3n2)c(OC)c1
Reply: 72

The measured values listed here are drawn from PubChem BioAssay AID2060603.
